Data provenance: patent US8759333B2

- TEST_TARGET: MGL (Rattus norvegicus, UniProt Q8R431)
- Construct: one g rat brain was homogenized using a Polytron homogenizer; from tissue; host or cells: rat brain homogenate
- Sequence (Q8R431 whole entry): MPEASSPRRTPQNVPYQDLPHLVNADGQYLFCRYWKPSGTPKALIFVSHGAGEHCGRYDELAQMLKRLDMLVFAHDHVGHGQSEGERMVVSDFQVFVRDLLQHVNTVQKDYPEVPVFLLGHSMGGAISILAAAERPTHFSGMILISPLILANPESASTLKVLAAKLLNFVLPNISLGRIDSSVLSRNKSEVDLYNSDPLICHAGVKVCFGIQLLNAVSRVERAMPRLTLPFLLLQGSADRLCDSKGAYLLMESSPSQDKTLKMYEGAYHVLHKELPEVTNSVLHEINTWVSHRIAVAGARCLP
- EXPERIMENT_DESCRIPTION: 2-AG Accumulation Assay in rat brain homogenate
- Format: biochemical
- EXPERIMENTAL_CONTEXT: compound @10 µM, percent of vehicle, read-out: Rat Brain 2AG % VehCntrl (%) @10 µM
READOUT_NAME: activity at 10 µM (%)
State the answer as a number, implicitly in %.

Consider the reported activity at 10 µM for these compounds:
query_smiles=O=C(NC1CN(C2CN(C(=O)c3ccc4c(-c5ccccc5)cccc4c3)C2)C1)c1nccs1 reported_measurement=722
query_smiles=O=C(NC1CN(C2CN(C(=O)c3ccc(Cc4cccc(C(F)(F)F)c4)cc3)C2)C1)c1nccs1 reported_measurement=977

// switching to the query compound
Data request: Find the recorded activity at 10 µM belonging to "O=C(c1ccc2c(ccn2-c2ccccc2C(F)(F)F)c1)N1CC(N2CC(N3Cc4ccccc4C3=O)C2)C1" and report it.
Data returned: 663
